# System: M14 melanoma
# procedure details: NCI tumour cell line growth inhibition, 48 h
reported endpoint: TGI

compound | tested system | value observed
CC(O)=NC(Cc1ccc2ccccc2c1)C(O)=NC(Cc1ccc(Cl)cc1)C(O)=NC(Cc1c[nH]c2ccccc12)C(O)=NC(CO)C(O)=NC(Cc1ccc(O)cc1)C(O)=NC(CCCN=C(N)N)C(O)=NC(CC(C)C)C(O)=NC(CCCN=C(N)N)C(=O)N1CCCC1C(O)=NC(C)C(=N)O (centres undefined) | M14 melanoma | > 100 µM
CCOc1cc(NC(C)=O)ccc1C(=O)NN1C(=O)CSC1c1ccc(O)c(OC)c1 (centres undefined) | M14 melanoma | > 100 µM
C[C@H](O)C(=O)SC[C@H](NC(=O)CC[C@@H](N)C(=O)O)C(=O)NCC(=O)O | M14 melanoma | > 100 µM
COC(=O)/C(=C\C(=O)c1ccc(Br)cc1)NN=C(c1ccccc1)c1ccccc1 | M14 melanoma | > 10 µM
COc1cc(C2C(Cl)C(=O)N2NC(=O)Cc2ccccc2)ccc1O (centres undefined) | M14 melanoma | > 100 µM
C=C1CO[C@@H]2C[C@@H]1CC/C(C)=C/CC/C(C)=C/CC[C@@]2(C)O | M14 melanoma | 32.9 µM
O=[N+]([O-])c1cc(/C=N/NS(=O)(=O)c2ccc(F)cc2)c(O)c([N+](=O)[O-])c1 | M14 melanoma | 52.2 µM
O=C(O)Cc1ccc2c(c1O)C(=O)c1c(ccc(CC(=O)O)c1O)C2=O | M14 melanoma | > 100 µM
Cc1cccc(N=C2NC(=O)C(CC(=O)Nc3ccc(Cl)cc3C)S2)c1 (centres undefined) | M14 melanoma | > 100 µM
CCCCCCC1N=C(N)N=C(N)N1c1ccc(Cl)cc1 (centres undefined) | M14 melanoma | 23.5 µM
O=C1C2Nc3ccccc3SC2C(=O)N1c1cccc([N+](=O)[O-])c1 (centres undefined) | M14 melanoma | > 100 µM
NC1=NS(=O)(=O)Nc2nc(-c3cccs3)[nH]c21 | M14 melanoma | > 100 µM
OC(c1ccccc1)c1c(-c2ccccc2)oc(-c2ccccc2)c1C(O)c1ccccc1 (centres undefined) | M14 melanoma | 21.9 µM
CCOC(=O)CCC(NC(=O)c1ccc(Oc2nc3ccccc3nc2C(=O)OCC)cc1)C(=O)OCC (centres undefined) | M14 melanoma | > 100 µM
COc1nc2c(c(=O)n1C)NC(C(O)C(O)CO)C=N2 (centres undefined) | M14 melanoma | > 10 µM
CCCC(=O)OCC(O)CO (centres undefined) | M14 melanoma | > 5000 µM
CC(C)NC(=O)O/N=C1\CCC2[C@@H]3CC=C4C[C@@H](OC(=O)NC(C)C)CC[C@]4(C)C3CC[C@]12C (some centres undefined) | M14 melanoma | 1.95 µM
COc1cccc(-c2cc(=O)c3cccnc3[nH]2)c1 | M14 melanoma | > 100 µM
COc1cc(NCc2ccc3n2-c2ccccc2OC3)cc(OC)c1OC | M14 melanoma | > 100 µM

* * *

# Tested on: MALME-3M melanoma
# procedure details: NCI tumour cell line growth inhibition, 48 h; in the data active = GI50 below about 0.43 µM; inactive = the rest
Where a SMILES comes first, the peptide text is derived from it. The star is where a group is joined. Boc = CC(C)(C)OC(=O)*; OBn = c1ccc(CO*)cc1
Possible outcomes: class 1 = active, class 0 = inactive

molecule | qualitative label
Cc1ccc(-c2cc(/C=N/O)on2)cc1 | class 0
CCOC(=O)CNC(=O)C(CSC(=O)N(C)O)NC(=O)CCC(N)C(=O)O (stereo not drawn) | class 0
C=C1C(=O)OC2CC3(C)OC3C3OC3C3=CC(OC3=O)C12 (stereo not drawn) | class 0
C[C@@H](Oc1cc(-c2cnn(C3CC4(CCCNC4)C3)c2)cnc1N)c1c(Cl)ccc(F)c1Cl (stereo partly drawn) | class 0
CNCCOc1nc2c3cnccc3cc(-c3cc(OC)c(OC)c(OC)c3)c2c2ccncc12 | class 1
CCN1C(=O)N(CC)C2C1NN=c1s/c(=C\c3ccccc3)c(=O)n12 (stereo not drawn) | class 0
CCC[CH2][Sn]1([CH2]CCC)[O]C(=O)c2cc(C)ccc2[O]1 | class 1
CCOC(=O)C(Cc1ccc(OC)cc1)C(=O)OCC | class 0
O=C(CC1(O)C(=O)Nc2c(Cl)ccc(Cl)c21)c1ccc(C2CC2)cc1 (stereo not drawn) | class 0
CC(=O)OCC(=O)C1(O)C(C)CC2C3C=C(C)C4=Cc5c(cnn5-c5ccccc5)CC4(C)C3C(O)CC21C (stereo not drawn) | class 0
C=C(C)[C@@H]1CC[C@]2(C)[C@H](C=CC3=C4C[C@@](C)(CO)CC[C@]4(C)CC[C@]32C)[C@@]1(C)CCCN | class 0
CC1(C)CC2CC(C)(CN2c2ncnc3ccc(Br)cc23)C1 (stereo not drawn) | class 1
CC[O-].CC[O-].O=C([CH-]C(=O)c1ccccc1)c1ccccc1.O=C([CH-]C(=O)c1ccccc1)c1ccccc1.[Ti+4] | class 0
N#CSCC(=O)c1ccc(Cl)cc1 | class 0
CCOc1cc(/C=N\NC(=O)N/N=C/c2ccc(O)c(OCC)c2)ccc1O | class 0
CSc1ccc(C2=NN(C(=O)c3ccc(N)cc3)C(c3ccc(F)cc3)C2)cc1 (stereo not drawn) | class 0
Brc1ccc(Br)nn1 | class 0
Cc1cc2nc3c4ccccc4n(CCN(C)C)c3nc2cc1C | class 0
CCN(CC)c1ccc2nc3c4ccccc4c(=NC(=O)c4ccccc4-c4c5ccc(N(CC)CC)cc5[o+]c5cc(N(CC)CC)ccc45)cc-3oc2c1 | class 0
CC(=O)N[C@@H](Cc1ccc(OP(=O)(O)O)cc1)C(=O)N[C@H]1CCC(=O)N2CCC[C@@H](C(=O)NCc3ccc(O)cc3)N2C1=O | class 0
CC(C)CC(NC(=O)OC(C)(C)C)C(=O)NC(CCC(=O)OCc1ccccc1)C(N)=O (stereo not drawn) (Boc-Leu-Glu(OBn)-NH2; configuration not given here) | class 0
COc1ccc(C2C3=C(COC3=O)N(CCO)c3cc4c(cc32)OCCO4)cc1OC (stereo not drawn) | class 0
CC(C)[O-].CC(C)[O-].[O-]c1cccc2cccnc12.[O-]c1cccc2cccnc12.[Ti+4] | class 0
